# procedure text: TOX21_p53_BLA_p3_viability: Viability Assessment in the Tox21 HCT-116 p53 Agonism Beta-lactamase Assay, Phase 3 (AID 2283593);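 note: cells exposed to compound for 16 h before reading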
Records with an inconclusive call do not appear. Activity calls are given as the source filed them. Rule for the calls: active = hit-call score of the fitted dose curve at least 0.9, where 1 is the maximum; inconclusive = response in the unintended direction; inactive = score below 0.9.
Respond only with the outcome that fits, drawn from 1 for active, 0 for inactive

Some entries whose results are on file:
CC(O)CO (stereo not drawn); 0
CCCCCCCCCCCCN1CCCC1=O; 1
CCCCC(CC)COC(=O)CCCCC(=O)OCC(CC)CCCC (stereo not drawn); 0
CCN(CC)CCNc1ccc(CNC=O)c2sc3ccc(OC)cc3c(=O)c12; 0

Record request — test call for CCC(C)(C)C1CCC(O)CC1 (stereo not drawn)
0

* * *

# procedure text: BSK_hDFCGF_Proliferation: Cell Proliferation Assessment in the BioMAP Diversity Plus: hDFCGF Assay (AID 2283059);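 note: curves fitted for both rise and fall of signal versus DMSO baseline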
# test context: primary human foreskin fibroblasts
Calls of active or inactive are those of the source. The calls were made as follows: active = hit-call score of the fitted dose curve at least 0.9, where 1 is the maximum; inactive = score below 0.9.
Hi there, use one of these labels in your reply, thanks! TRUE = active, FALSE = inactive

Reference set, count: 2
CC(C)(C)c1cccc(C(C)(C)C)c1O; TRUE
FC(F)(I)C(F)(F)C(F)(F)C(F)(F)C(F)(F)C(F)(F)I; TRUE

// outcome(item) with item = CC(=O)NC1(c2cccc(F)c2)CCN(CC[C@@]2(c3ccc(Cl)c(Cl)c3)CN(c3ccccc3)C(=O)CO2)CC1
TRUE

What outcome does the record of this test show for CC[C@H](C)[C@@H](C(=O)O)n1sc2ccccc2c1=O ?
FALSE

Call for entry CC[C@H](c1ccc(O)cc1)[C@@H](CC)c1ccc(O)cc1 :
TRUE

# lookup: test call for CCc1nn(C2CCCCC2)c2cc(C3(C#N)CCC(C(=O)O)CC3)ccc12 (stereo unspecified)
TRUE

* * *

# procedure text: BSK_SAg_SRB: Viability Assessment in the BioMAP Diversity Plus: SAg Assay (AID 2283096);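 note: cells read one day after compound addition; hits may be either gain or loss of signal compared with DMSO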
# test context: primary human HUVEC with PBMC
Activity calls are given as the source filed them. The calls were made as follows: active = hit-call score of the fitted dose curve at least 0.9, where 1 is the maximum; inactive = score below 0.9.
Thanks in advance; please answer with one of these: active, inactive

See these solved cases before continuing.
CCCCCCCC(=O)O; inactive
NC(=O)N1C(=O)C(C(=O)c2cc(Cl)cs2)c2cc(F)c(Cl)cc21 (configuration not stated); active
CCc1nn(C2CCCCC2)c2cc(C3(C#N)CCC(C(=O)O)CC3)ccc12 (configuration not stated); active
CC(C)CCCCCCOC(=O)CCCCC(=O)OCCCCCCC(C)C; inactive
FC(F)(I)C(F)(F)C(F)(F)C(F)(F)C(F)(F)C(F)(F)I; active
NC(=O)N(O)[C@@H]1C=C[C@H](Oc2cccc(Oc3ccc(F)cc3)c2)C1; inactive

Outcome? c1ccc2c(c1)ccc1ccccc12
inactive

Returns: the outcome recorded for Cc1cc(C)c(O)c(C)c1 in this assay.
inactive

Could you check what this test reported for OC1CCC(C2CCCCC2)CC1 (configuration not stated) ?
inactive

Name the outcome recorded for CCc1ccc(CCOc2ccc(CC3SC(=O)NC3=O)cc2)nc1 (configuration not stated) in the assay.
inactive

// param item: Cc1oc(-c2ccccc2)nc1CCOc1ccc(C[C@H](Nc2ccccc2C(=O)c2ccccc2)C(=O)O)cc1 ; yields the recorded call
active

Dear colleague, could you share the recorded outcome for NCC(F)(F)C(F)(F)C(F)(F)C(F)(F)C(F)(F)C(F)(F)C(F)(F)F when you have a moment?
inactive

* * *

# procedure text: CEETOX_H295R_MTT_cell_viability: Viability Assessment in the CeeTox HT-H295R MTT Assay (AID 2283718)
Active and inactive are the calls of the source. The calls were made as follows: active = hit-call score of the fitted dose curve at least 0.9, where 1 is the maximum; inactive = score below 0.9.
Outcome field: choose from active, inactive

Answered cases to consult:
Cc1cc(CCN2CCN(c3nsc4ccccc34)CC2)cc2c1NC(=O)CC2(C)C; active
CCCCCCCCCCCCCCCS(=O)(=O)Oc1ccccc1; inactive

Please look at the following compound next.
Assay outcome for C#C[C@]1(O)CC[C@H]2[C@@H]3CCC4=CC(=O)CC[C@@H]4[C@H]3CC[C@@]21C : what was it?
active

* * *

# procedure text: APR_HepG2_P-H2AX_24hr: Apredica 24-hour HepG2 Assay for H2AX Phosphorylation (AID 2282920)
# test context: high-content imaging, actives raise or lower the signal
Activity calls are given as the source filed them. The calls were made as follows: active = hit-call score of the fitted dose curve at least 0.9, where 1 is the maximum; inactive = score below 0.9.
Write down one outcome, taken from class 1 for active, class 0 for inactive

Tell me the assay call for CC(=O)CC(C)(C)O please.
class 1

Which outcome did this test record for the compound CC#C[C@]1(O)CC[C@H]2[C@@H]3CCC4=CC(=O)CCC4=C3[C@@H](c3ccc(N(C)C)cc3)C[C@@]21C ?
class 0

Could you check what this test reported for CCN(CC)CCNc1ccc(CNC=O)c2sc3ccc(OC)cc3c(=O)c12 ?
class 1

* * *

# Read-out: Pro-epidermal growth factor (Homo sapiens)
# procedure text: LTEA_HepaRG_EGF: Life Technologies and Expression Analysis (LTEA) Assay for Epidermal growth factor (EGF) using HepaRG (AID 2283489)
# test context: mRNA level, 48 h; actives raise or lower the signal
Calls of active or inactive are those of the source. The calls were made as follows: active = hit-call score of the fitted dose curve at least 0.9, where 1 is the maximum; inactive = score below 0.9.
measured quantity: AC50

Consider the reported AC50 for these molecules:
CCCCCCCCOC(=O)CCCCCCCCC(=O)OCCCCCCCC; inactive
CCCOC(=O)c1ccc(O)cc1; inactive
Nc1cccc2c(N)cccc12; inactive
CC(C)(C)CC(C)(C)c1ccc(O)c(-n2nc3ccccc3n2)c1; 50 µM (active)
CN(C)C=O; inactive

Lab note: each molecule below needs its AC50 filled in.
1. NC(=O)N(O)[C@@H]1C=C[C@H](Oc2cccc(Oc3ccc(F)cc3)c2)C1
2. OC1CCC(C2CCCCC2)CC1 (stereo unspecified)
3. CCCOc1sc(C(=O)N2CCC(c3cc(CN)ccc3F)CC2)c(C)c1Br
4. O=C(O)c1ccccc1C(c1ccc(O)cc1)c1ccc(O)cc1
5. COC(=O)CCCCC(=O)OC
6. Oc1cccc(O)c1
7. O=C(OCCOCCOC(=O)c1ccccc1)c1ccccc1

["inactive", "inactive", "inactive", "inactive", "inactive", "inactive", "inactive"]

# per-item lookup of AC50; items listed below
1. C=C(C)C(=O)OCCC(F)(F)C(F)(F)C(F)(F)C(F)(F)C(F)(F)C(F)(F)F
2. CC[C@H](c1ccc(O)cc1)[C@@H](CC)c1ccc(O)cc1

inactive
inactive

Your task in this section: give AC50 for each listed record.
1. CCCCCCC(=O)O
2. Cc1oc(-c2ccccc2)nc1CCOc1ccc(C[C@H](Nc2ccccc2C(=O)c2ccccc2)C(=O)O)cc1
3. c1ccc2c(c1)Cc1ccccc1-2
4. CCC(=C(c1ccc(O)cc1)c1ccc(OCCN(C)C)cc1)c1ccccc1
5. CC(C)(C)c1cc(C(C)(C)C)c(O)c(C(C)(C)C)c1
6. CCCCC(CC)COC(=O)CCCCC(=O)OCc1ccccc1 (stereo unspecified)

1. inactive
2. 24.9 µM (active)
3. inactive
4. inactive
5. inactive
6. inactive

* * *

# target under test: Nuclear receptor subfamily 1 group I member 3 (Homo sapiens) (UniProt Q14994)
# Sequence (Q14994 whole entry, looked up): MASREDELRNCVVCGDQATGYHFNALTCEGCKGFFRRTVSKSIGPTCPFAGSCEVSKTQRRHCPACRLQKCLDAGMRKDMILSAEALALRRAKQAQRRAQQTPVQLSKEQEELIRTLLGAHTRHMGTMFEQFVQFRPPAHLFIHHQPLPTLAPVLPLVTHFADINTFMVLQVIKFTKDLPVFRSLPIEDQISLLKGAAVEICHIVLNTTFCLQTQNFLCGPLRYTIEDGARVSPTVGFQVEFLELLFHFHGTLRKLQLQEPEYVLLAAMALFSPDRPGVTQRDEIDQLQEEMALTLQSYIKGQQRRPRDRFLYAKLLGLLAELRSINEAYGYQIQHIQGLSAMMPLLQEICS
# procedure text: ATG_CAR_TRANS: Attagene TRANS-FACTORIAL HepG2 Assay for human Constitutive Androstane Receptor (CAR) (AID 2282969);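 note: activators raise reporter mRNA above DMSO so AC50 marks induction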
# test context: HepG2 Attagene TRANS-FACTORIAL CAR reporter
Results filed as inconclusive are left out. The source made the active and inactive calls. How the source made its calls: active means hit-call score of the fitted dose curve at least 0.9, where 1 is the maximum; inconclusive means response in the unintended direction; inactive means score below 0.9.
Form entry, call: pick from y for active, n for inactive

OCCC(F)(F)C(F)(F)C(F)(F)C(F)(F)C(F)(F)C(F)(F)C(F)(F)C(F)(F)F; n
Cc1cc(C)c(O)c(C)c1; n
CCOC(=O)CC(O)(CC(=O)OCC)C(=O)OCC; n
CC(C)(C)c1cccc(C(C)(C)C)c1O; n
c1ccc2cc3c(ccc4ccccc43)cc2c1; n

Just curious, what result did CC(C)(C)c1ccc(O)c(C(C)(C)C)c1 get here?
y

Tell me the assay call for CCCCCCCC(=O)O please.
n

* * *

# target under test: Signal transducer and activator of transcription 3 (Homo sapiens) (UniProt P40763)
# Sequence (P40763 whole entry, looked up): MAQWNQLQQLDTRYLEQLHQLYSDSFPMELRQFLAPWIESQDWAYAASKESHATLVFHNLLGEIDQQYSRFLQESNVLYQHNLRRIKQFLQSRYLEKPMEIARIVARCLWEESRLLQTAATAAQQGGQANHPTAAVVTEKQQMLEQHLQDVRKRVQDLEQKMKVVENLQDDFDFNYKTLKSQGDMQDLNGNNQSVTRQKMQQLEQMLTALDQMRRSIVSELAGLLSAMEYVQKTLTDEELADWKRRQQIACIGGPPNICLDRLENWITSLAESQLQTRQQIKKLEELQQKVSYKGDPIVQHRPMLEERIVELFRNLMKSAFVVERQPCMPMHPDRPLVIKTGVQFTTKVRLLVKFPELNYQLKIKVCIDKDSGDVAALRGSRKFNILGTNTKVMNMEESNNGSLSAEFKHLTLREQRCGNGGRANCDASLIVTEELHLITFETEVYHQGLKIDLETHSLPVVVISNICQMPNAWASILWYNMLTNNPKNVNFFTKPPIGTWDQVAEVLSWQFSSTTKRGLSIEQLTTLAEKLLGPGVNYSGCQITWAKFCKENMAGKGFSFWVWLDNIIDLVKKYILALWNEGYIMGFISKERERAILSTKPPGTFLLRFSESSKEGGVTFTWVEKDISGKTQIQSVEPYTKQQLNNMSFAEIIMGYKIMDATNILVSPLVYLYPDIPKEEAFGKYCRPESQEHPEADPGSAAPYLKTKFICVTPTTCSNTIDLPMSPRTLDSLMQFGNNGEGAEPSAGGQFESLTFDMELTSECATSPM
# procedure text: ATG_STAT3_CIS: Attagene CIS-FACTORIAL HepG2 Assay for human Signal Transducer and Activator of Transcription 3 (STAT3) (AID 2282963)
# test context: HepG2, Attagene cis-factorial STAT3 reporter transcription; actives raise or lower the signal
Active and inactive are the calls of the source. The calls were made as follows: active = hit-call score of the fitted dose curve at least 0.9, where 1 is the maximum; inactive = score below 0.9.
measured quantity: outcome

As a guide, the following entries are already answered.
CCC(=C(c1ccc(O)cc1)c1ccc(OCCN(C)C)cc1)c1ccccc1; inactive
Cc1cc(C)c(O)c(C)c1; inactive
CCN(CC)CCNc1ccc(CNC=O)c2sc3ccc(OC)cc3c(=O)c12; inactive
CCCCC(CC)COC(=O)CCCCC(=O)OCC(CC)CCCC (stereo not drawn); inactive
CC(C)(C)c1ccc(O)c(C(C)(C)C)c1; inactive

Dear colleague, could you please provide outcome for the molecules listed below?
1. COc1cc(CCC(=O)CC(=O)CCc2ccc(O)c(OC)c2)ccc1O
2. CCCCC[C@H](O)CC(=O)CCc1ccc(O)c(OC)c1
3. CCCOC(=O)c1ccc(O)cc1

1. inactive
2. inactive
3. inactive
